- system: recombinant hPTP1B (human PTP1B, 1-299 aa) (Homo sapiens, UniProt P18031)
- Construct: without the carboxy-terminal hydrophobic region (corresponding to 1-299 aa)
- Sequence (P18031 1-299): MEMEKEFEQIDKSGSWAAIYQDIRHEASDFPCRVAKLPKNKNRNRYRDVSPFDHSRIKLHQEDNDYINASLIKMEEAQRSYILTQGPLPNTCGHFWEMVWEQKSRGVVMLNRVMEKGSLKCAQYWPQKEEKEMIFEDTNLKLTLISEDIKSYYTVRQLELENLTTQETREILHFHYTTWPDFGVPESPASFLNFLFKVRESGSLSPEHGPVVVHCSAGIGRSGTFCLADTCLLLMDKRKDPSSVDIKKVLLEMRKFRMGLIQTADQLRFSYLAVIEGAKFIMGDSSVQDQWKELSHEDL
- assay-method-text: Enzymatic test systems for detecting inhibition of a phosphatase (in vitro assay)
- experimental-setup: Table 2 does not say which substrate (phosphopeptide or p-nitrophenyl phosphate)
endpoint-name: IC50 (µM)

>>> readout_value("O=S1(=O)Cc2cc(Nc3nc(-c4ccc(N5CCCC5)cc4)cs3)ccc2N1")
5.9

(I) Cc1sc(Nc2ccc3c(c2)CS(=O)(=O)N3)nc1-c1ccccc1
(II) Cc1c(-c2csc(Nc3ccc4c(c3)CS(=O)(=O)N4)n2)sc2ccccc12
Endpoint returns the identifier whose IC50 is numerically larger, either I or II . Reply with the label of the item you choose.
I
(I: 15.9 µM, II: 6.2 µM)

----------
- system: recombinant hPTP1B (human PTP1B, 1-299 aa) (Homo sapiens)
- Construct: without the carboxy-terminal hydrophobic region (corresponding to 1-299 aa)
- Sequence (P18031 1-299): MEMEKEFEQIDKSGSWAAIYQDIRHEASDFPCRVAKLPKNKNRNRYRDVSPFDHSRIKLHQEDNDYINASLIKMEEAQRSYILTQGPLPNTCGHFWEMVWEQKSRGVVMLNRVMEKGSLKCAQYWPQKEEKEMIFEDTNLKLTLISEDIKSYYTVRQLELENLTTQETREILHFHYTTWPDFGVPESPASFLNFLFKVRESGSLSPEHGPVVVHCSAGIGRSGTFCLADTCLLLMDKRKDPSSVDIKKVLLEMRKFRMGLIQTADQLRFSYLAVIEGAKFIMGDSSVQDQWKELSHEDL
- assay-method-text: Enzymatic test systems for detecting inhibition of a phosphatase (in vitro assay)
- experimental-setup: Table 2 does not say which substrate (phosphopeptide or p-nitrophenyl phosphate)
endpoint-name: IC50 (µM)

>>> readout_value("Cc1c(-c2csc(Nc3ccc4c(c3)CS(=O)(=O)N4)n2)sc2ccc(Cl)cc12 [Example 10]")
5.3
>>> readout_value("O=S1(=O)Cc2cc(Nc3nc(-c4ccc(Cl)c(Cl)c4)cs3)ccc2N1 [Example 2]")
27.8
>>> readout_value("O=S1(=O)Cc2cc(Nc3nc(-c4ccc(Br)cc4)cs3)ccc2N1 [Example 4]")
6.2
>>> readout_value("O=S1(=O)Cc2cc(Nc3nc(-c4ccc5ccccc5c4)cs3)ccc2N1 [Example 3]")
8.8
>>> readout_value("COc1ccc(-c2csc(Nc3ccc4c(c3)CS(=O)(=O)N4)n2)c(OC)c1 [Example 6]")
48

(1) COc1cccc(-c2csc(Nc3ccc4c(c3)CS(=O)(=O)N4)n2)c1 [Example 9]
(2) CC(C)(C)c1cc(-c2csc(Nc3ccc4c(c3)CS(=O)(=O)N4)n2)cc(C(C)(C)C)c1O [Example 14]
Given the two records 1 and 2 , choose the one whose IC50 value is lower. Reply with the label of the item you choose.
2
